# experimental.system: Bcl-2-related protein A1 (Homo sapiens, UniProt Q16548)
# protocol.details: Inhibition of Bfl-1 in human SU-DHL-1 cells assessed as caspase-3/7 activation measured after 6 hrs by UPLC-MRM MS analysis
measured.endpoint: EC50 (µM)

(P) C=CC(=O)N(Cc1ccc(C(F)(F)F)c(C#N)c1)c1ccc(O[C@@H]2CC[C@@H](N)C2)cc1 (racemic)
(Q) C=CC(=O)N(Cc1ccc(Cl)c(C#N)c1)c1ccc(O[C@@H]2CC[C@@H](N)C2)cc1 (racemic)
(R) C=CC(=O)N(c1ccc(O[C@@H]2CC[C@@H](N)C2)cc1)[C@@H](C)c1ccc(C(F)(F)F)c(C#N)c1
(S) C=CC(=O)N(Cc1ccc(Cl)cc1)c1ccc(O[C@@H]2CC[C@@H](N)C2)cc1 (racemic)
Query: Using the recorded EC50, list the entries above from smallest to largest. Your reply should list the labels following the order given in the request.
Result: R, P, Q, S

(I) C=CC(=O)N(Cc1ccc(C(F)(F)F)cc1)c1ccc(O[C@@H]2CC[C@@H](N)C2)cc1 (racemic)
(II) C=CC(=O)N(c1ccc(O[C@@H]2CC[C@@H](N)C2)cc1)[C@H](C)c1ccc(C(F)(F)F)c(C#N)c1
Query: // compare: I vs II , metric EC50, want the smaller Indicate your choice by writing its label.
Result: I
(I: 2.6 µM, II: 6.9 µM)

* * *

# experimental.system: Bcl-2-related protein A1 (Homo sapiens, UniProt Q16548)
# Sequence (Q16548 whole entry): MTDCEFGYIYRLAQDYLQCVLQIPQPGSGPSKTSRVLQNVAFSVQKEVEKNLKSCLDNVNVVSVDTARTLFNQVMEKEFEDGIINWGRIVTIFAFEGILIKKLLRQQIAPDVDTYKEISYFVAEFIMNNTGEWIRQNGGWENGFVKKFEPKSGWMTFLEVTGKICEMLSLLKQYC
# protocol.details: Inhibition of N-terminal His6-tagged recombinant Bfl-1 (1 to 151 residues)(unknown origin) extracted from Escherichia coli BL21-Gold (DE3) using HyLite Fluor 647-labeled Bim peptide as substrate incubated for 120 mins by TR-FRET assay
measured.endpoint: IC50 (nM)

(A) C=CC(=O)N(Cc1ccc(C(F)(F)F)c(C#N)c1)c1ccc(O[C@@H]2CC[C@@H](N)C2)cc1 (racemic)
(B) C=CC(=O)N(Cc1ccc(Cl)cc1)c1ccc(OC)cc1
Query: // compare: A vs B , metric IC50, want the smaller Indicate your choice by writing its label.
Result: A

(P) C=CC(=O)N(Cc1ccc(Cl)cc1)c1ccc(O[C@@H]2CC[C@@H](N)C2)cc1 (racemic)
(Q) C=CC(=O)N(c1ccc(O[C@@H]2CC[C@@H](N)C2)cc1)[C@H](C)c1ccc(C(F)(F)F)c(C#N)c1
Query: Recorded IC50 values differ for P and Q ; which one is higher? Indicate your choice by writing its label.
Result: Q
(Q: 1600 nM, P: 450 nM)

* * *

# experimental.system: Bcl-2-related protein A1 (Homo sapiens)
# protocol.details: Inhibition of N-terminal His6-tagged recombinant Bfl-1 (1 to 151 residues)(unknown origin) extracted from Escherichia coli BL21-Gold (DE3) using HyLite Fluor 647-labeled Bim peptide as substrate incubated for 120 mins by TR-FRET assay
measured.endpoint: IC50 (nM)

compound="C=CC(=O)N(Cc1ccc(Cl)cc1)c1ccc(O[C@@H]2CC[C@@H](NC(C)=O)C2)cc1 (racemic)" unit_abbreviation=nM reading=460
compound="C=CC(=O)N(Cc1ccc(Cl)c(C#N)c1)c1ccc(O[C@@H]2CC[C@@H](N)C2)cc1 (racemic)" unit_abbreviation=nM reading=350
compound="C=CC(=O)N(Cc1ccc(Cl)cc1)c1ccc(O[C@@H]2CC[C@@H](N(C)C)C2)cc1 (racemic)" unit_abbreviation=nM reading=440

(I) C=CC(=O)N(Cc1ccc(Cl)cc1)c1ccc(O[C@@H]2CC[C@@H](NC)C2)cc1 (racemic)
(II) C=CC(=O)N(Cc1ccc(Cl)cc1)c1ccc(O[C@@H]2CC[C@@H](N(C)C(C)=O)C2)cc1 (racemic)
(III) C=CC(=O)N(Cc1ccc(Cl)cc1)c1ccc(O[C@H]2CC[C@H](N)C2)cc1
Query: Please rank these compounds by IC50 in descending order. Your reply should list the labels following the order given in the request.
Result: II, III, I
(II: 22000 nM, III: 5100 nM, I: 380 nM)

Numbers sourced from ChEMBL document CHEMBL5608257.
